Source listed as ChEMBL document CHEMBL3991601.

test-target: Cyclin-G-associated kinase (Homo sapiens, UniProt O14976); further: in the data inactive means no Kd found up to 30 µM
Sequence (O14976 whole entry): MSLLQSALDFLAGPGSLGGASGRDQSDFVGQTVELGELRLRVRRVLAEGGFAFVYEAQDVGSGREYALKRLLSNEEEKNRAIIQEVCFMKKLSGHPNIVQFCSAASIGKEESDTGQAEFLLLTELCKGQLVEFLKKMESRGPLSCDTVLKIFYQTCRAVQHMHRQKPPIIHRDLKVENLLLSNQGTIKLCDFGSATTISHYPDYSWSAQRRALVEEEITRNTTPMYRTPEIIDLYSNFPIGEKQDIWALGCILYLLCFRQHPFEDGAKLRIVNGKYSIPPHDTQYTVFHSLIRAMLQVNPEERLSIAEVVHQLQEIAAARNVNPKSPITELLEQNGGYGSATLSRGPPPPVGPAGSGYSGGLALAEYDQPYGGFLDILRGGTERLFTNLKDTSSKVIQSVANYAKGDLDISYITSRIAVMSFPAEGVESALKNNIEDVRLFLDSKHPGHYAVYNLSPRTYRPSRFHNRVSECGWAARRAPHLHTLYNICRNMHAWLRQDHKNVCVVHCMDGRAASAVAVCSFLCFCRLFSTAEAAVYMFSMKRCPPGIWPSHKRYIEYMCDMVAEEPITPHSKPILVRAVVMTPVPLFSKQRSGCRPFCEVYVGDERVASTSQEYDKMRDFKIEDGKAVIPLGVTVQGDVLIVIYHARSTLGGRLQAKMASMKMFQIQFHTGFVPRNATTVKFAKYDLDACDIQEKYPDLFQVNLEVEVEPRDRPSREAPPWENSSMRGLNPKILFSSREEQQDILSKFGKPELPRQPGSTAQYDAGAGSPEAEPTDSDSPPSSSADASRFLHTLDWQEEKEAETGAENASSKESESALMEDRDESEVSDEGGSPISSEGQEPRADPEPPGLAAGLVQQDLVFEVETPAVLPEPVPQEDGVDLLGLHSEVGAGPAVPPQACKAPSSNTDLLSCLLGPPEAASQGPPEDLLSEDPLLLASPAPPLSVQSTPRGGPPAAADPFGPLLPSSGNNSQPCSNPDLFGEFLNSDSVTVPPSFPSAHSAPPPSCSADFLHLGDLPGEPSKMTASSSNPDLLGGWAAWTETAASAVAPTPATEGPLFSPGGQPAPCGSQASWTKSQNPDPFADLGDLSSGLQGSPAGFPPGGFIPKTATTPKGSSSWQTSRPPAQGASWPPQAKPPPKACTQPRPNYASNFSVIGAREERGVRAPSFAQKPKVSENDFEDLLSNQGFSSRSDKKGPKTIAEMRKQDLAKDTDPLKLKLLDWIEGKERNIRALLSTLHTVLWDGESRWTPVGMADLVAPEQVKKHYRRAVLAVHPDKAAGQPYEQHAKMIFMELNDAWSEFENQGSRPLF
Active and inactive are the calls of the source.
Could you please pick one outcome from this set? True = active, False = inactive

Worked examples follow.
compound	test-target	cat
O=C(Nc1cc(C(F)(F)F)cc(C(F)(F)F)c1)c1cc(Cl)ccc1O [IMD-0354]	Cyclin-G-associated kinase (Homo sapiens, UniProt O14976)	False
COc1cc([C@@H]2c3cc4c(cc3[C@H](O)[C@H]3COC(=O)[C@@H]23)OCO4)cc(OC)c1OC [AXL-1717]	Cyclin-G-associated kinase (Homo sapiens, UniProt O14976)	False

Ask | Each compound tested received a call. Report the one for O=c1[nH]ccc2cc(OC3CCNCC3)ccc12 [SAR-407899 FREE BASE] .
Reply | False

Ask | Tell me the assay call for "CC(=O)c1cnc2ccc(-c3cc(Cl)c(O)c(Cl)c3)nc2c1N[C@H]1CC[C@H](CN(C)C)CC1" please.
Reply | True

Ask | What classification did CO[C@H]1C[C@@H]2CC[C@@H](C)[C@@](O)(O2)C(=O)C(=O)N2CCCC[C@H]2C(=O)O[C@H]([C@H](C)C[C@@H]2CC[C@@H](OC(=O)C(C)(CO)CO)[C@H](OC)C2)CC(=O)[C@H](C)/C=C(\C)[C@@H](O)[C@@H](OC)C(=O)[C@H](C)C[C@H](C)/C=C/C=C/C=C/1C [TEMSIROLIMUS] end up with in this test?
Reply | False

Ask | Recorded test call requested for "C[C@H]1CNCCCN1S(=O)(=O)c1cccc2cncc(F)c12"
Reply | False

Ask | What did this assay record as the result for Cc1cc(Nc2ncc(Cl)c(Nc3ccccc3S(=O)(=O)C(C)C)n2)c(OC(C)C)cc1C1CCNCC1 [CERITINIB] ?
Reply | False
